test: yeast display, Sf9 membrane polyspecificity reagent, FACS + sequencing; frameworks hold sequencing errors
QUANTITY_KIND: polyreactivity (PSR sort gate)

Look over these answered cases.
- BIOSEQUENCE: "QVQLVESGGGLVQAGGSLRLSCAASGSIFQINVMGWYRQAPGKERELVAASYADSVKGRFTISRDNAKNTVYLQMNSLKPEDTAVYYCARSNPAYSIYDYWGQGTQVTVSS"
  polyreactivity (PSR sort gate): "low polyreactivity"
- BIOSEQUENCE: "QVQLVESGGALVQAGGSLRLSCAASGSIFTGYAMGWYRQAPGKERELVAAISSRGGSTYYADSVKGRFTISRDNATNTVYLQMNSLKPEDTAVYYCNAVYSGRFLRRDYWGQGTQVTVSS"
  polyreactivity (PSR sort gate): "high polyreactivity"
- BIOSEQUENCE: "QVQLVESGGGLVQAGGSLRLSCAASGITFSFYAMGWYRQAPGKERELVAGITRSGGDTYYADSVKGRFTISRDNAKNTVYLQMNSLKPEDTAVYYCAAAWFFYRRQYTFFAGRMDYWGQGTQVTVSS"
  polyreactivity (PSR sort gate): "high polyreactivity"
- BIOSEQUENCE: "QVQLVESGGGLVQAGGSLRLSCAASGRIFEVYDMGWYRQAPGKERELVAAISESDDNTYYADSVKGRFTISRDNAKNTVYLQMNSLKPEDTAVYYCNADVPGDTGWWGFDYWGQGTQVTVSS"
  polyreactivity (PSR sort gate): "low polyreactivity"
- BIOSEQUENCE: "QVQLVESWGGIVQAGGSLRLSCAASGFIFSRYGMGWYRQAPGKERELVAAISRSAGSTYYADSVKGRFTISRDNAKNTVYLQMNSQKPEETAVYYCAARHGGRATVEPPIQGYGYWGQGTQVTVSS"
  polyreactivity (PSR sort gate): "low polyreactivity"
- BIOSEQUENCE: "QVQLVESGGGLVQAGGSLRLSCAASGSIISGYAMGWYRQAPGQERELVAAISRSGGRTYYADSVKGRFTISRDNAKNTVYLQMNSLKPEETAVYYCAAKIYIPRGYDYWGQGTQVTVSS"
  polyreactivity (PSR sort gate): "high polyreactivity"
- BIOSEQUENCE: "QVQLVESGGGLVQAGGSLRLICAASGRIFGRNAMGWYRQARGKERELVAGISSGGTTDYADSVKGRFTISRDNAKNTVYLQMNSLKPEDTAVYYCNVDNDDSAFYAIFVLYDYWGEGTQVTVSS"
  polyreactivity (PSR sort gate): "low polyreactivity"
- BIOSEQUENCE: "QAQLQESGGSLVQAGGGLRLSCAASGYISVGSVMGWYRQAPSKERELGASIDQGANTNYADSVKGRFTISRDNAKNNVYLQMNSLKPEDTAVYYCATETTYILNYWGQGTQVTVSS"
  polyreactivity (PSR sort gate): "low polyreactivity"

Incoming: Indicate the recorded polyreactivity (PSR sort gate) value for this sequence: QVQLQESVGGLVQACGSLRLSCAASGYIFSHQYMGWYRQAPGKERELVASISPGATTNYADSVKGRFTISRDNAKNTVYLQMNSLKPEDTAVYYYAVYQILDRRLSYWGQGTQVTVSC
Outgoing: high polyreactivity

Incoming: Indicate the recorded polyreactivity (PSR sort gate) value for this sequence: QVQLVESGGGLVQAGGSLRLSCAASGITFWNNAKGWYRQAPGKEREFVATISSNGGRTYYADSVKGRFTISRDNAKNTVYLQMNSLKPEDNAVYYCNAARRAYGYNYWGQGTQVTVSS
Outgoing: low polyreactivity

Incoming: Indicate the recorded polyreactivity (PSR sort gate) value for this sequence: QVQLVESGGGLVQAGGSLRLSCAASGLTFVENAMGWYRQAPGKERELVASISNGGSTYYADSVKGRFTISRDNAKNTVYLQMNSLKQEDTAVYYCAAGYWAGYGSTAPYDYWGQGTQVTVSS
Outgoing: low polyreactivity

Incoming: Indicate the recorded polyreactivity (PSR sort gate) value for this sequence: QVQLVESGGGLVQAGGSLRLTCAASGGTFRRYTMGWYRQAPGKERELVAVISRSGGSTYYADSVKGRFTISRDNAKNTVYLQMNRLKPEDTAVYYCAVVYYNGYDWGQGTQVTVSS
Outgoing: high polyreactivity

Incoming: Indicate the recorded polyreactivity (PSR sort gate) value for this sequence: QVQLVESGGGLVQAGGSLRLSCAASGSISRVYAMGWYRAAPGKERELVASISRSGGSTYYADSVKGRFTISRDNAKNTVYLQRNSLKPEDTAVYYCAKASKGQYRFDYWGQGTQVTVSS
Outgoing: low polyreactivity

Incoming: Indicate the recorded polyreactivity (PSR sort gate) value for this sequence: QVQLVESGGGLVQAGGSLRLRCAASGSTFINNAMGWYRQAPGKERELVAAISGSGVSTYYADSVKGRFTISRDNAKNTVYLQMNSLKPEDTAVYYCNKRYRNYFWYKPYSTKYEYWGQGTQVTVSS
Outgoing: high polyreactivity

Incoming: Indicate the recorded polyreactivity (PSR sort gate) value for this sequence: QDQLVESGGGLVQAGGSLRLSCAASGFIFIPNAMGWYRQAPRKERELVAAISFSDGTTYYADSVKGRFTISRDYEKNTVYLQMNSLKPEDTAVYYCAAEGYQSQYDYWGQGTQVTVSS
Outgoing: high polyreactivity

Incoming: Indicate the recorded polyreactivity (PSR sort gate) value for this sequence: QVQLVESGGGLVQAGGSLRLSCAASGSIFARYAMGWYRQAPGKERELVATITRGGSTNYADSVKGRFTISRDNAKNTVYLQMNSLKPEDTAVYYCARTSYGRLDYWGQGTQVTVSS
Outgoing: low polyreactivity
